Test system: MS2 coat protein
Assay: apparent KD of MS2 coat protein; designed switch direction (-1 OFF switch, 1 ON switch): 1; higher = weaker reporter binding
Conditions: input ligand: FMN 200 uM
attribute measured: apparent KD of MS2 coat protein (nM)
Give bare numbers, in nM.

| entry sequence | assay system | apparent KD of MS2 coat protein / nM |
| --- | --- | --- |
| UGUUUGUUGUGAGGAUAUACAUACACCUUACAUGAGGAUCACCCAUGUUGUUACCUUGAUAGUUAGUAGAAGGCACUUGGUUAU [JR_SSNG2_Sub046] (Eterna round: R96, puzzle: Same State NG 2) | MS2 coat protein | 243 |
| ACAUGAGACGCAGGAUAUCUUGUACCUACAUGUGACAUGAGGAUCACCCAUGUGGUAAGUAUGAUAGAGAAGGGCGAGAUAUGU [Equivalance 56 - Jieux - Same State NG 2] (Eterna round: R96, puzzle: Same State NG 2) | MS2 coat protein | 19.7 |

API: the following record is the query input.
input: What value of apparent KD of MS2 coat protein has been recorded for this entry: GAGGAACAGGCCAACAUGAGGAUCACCCAUGUCCUCGCAUUUCAGGAUAUCUGGAAGAAGAAAAAAGAGAAGGGAAGGUGAAGC [AK SSNG3-V2-34.3] (Eterna round: R96, puzzle: Same State NG 3)
output: 198

* * *

Can you tell me apparent KD of MS2 coat protein for the items I'm about to list?
System: MS2 coat protein
Assay: apparent KD of MS2 coat protein; designed switch direction (-1 OFF switch, 1 ON switch): -1; higher = weaker reporter binding
Conditions: input ligand: microRNA oligo, concentration not stated
Numbers only, in nM.

The following sequences have reported results that may help.
| entry sequence | endpoint unit | observed result |
| --- | --- | --- |
| AUUGUAUGAUACCUCUAAUACAUGAGGAUCACCCAUGUUAUCGAGGAUAUGCAGAAUAGAUUAGAGCAGAAGGCGAAGUAAUAU [JR_ExcNG3_Sub025] (Eterna round: R96, puzzle: Exclusion NG 3) | nM | 9.08 |
| ACAUGAGGAUCACCCAUGUCAGGCGGGUCCACUCCGGCUGUUGAGGAUAUAGUCCGGUAUCCGCGCUAGAAGGUGAGGGCCGGC [Aenatbe mod 24] (Eterna round: R96, puzzle: Exclusion NG 3) | nM | 15.4 |
| UACAUGAGGAUCACCCAUGUUUUGUCGUGUAUGGUAAUAAUCUAGGAUAUCAAUUUAUUUAUUUAUGAGAAGGAGAAUAAUAAA [JMF's solution 4] (Eterna round: R96, puzzle: Exclusion NG 3) | nM | 55.9 |
| UGUUGUCGCGCAGGAUAUUGUCAACAGGCAGUAGGAUAUCCGAAAGGAGAAGGACCGCCAACAGGCGAGAAGGGCGGGACAACU [pwkr exNG2 2xF7 2xFMN.9] (Eterna round: R96, puzzle: Exclusion NG 2) | nM | 35.7 |
| UCACGGGACUAAGGAUAUAUGAGAGCCAUUAACAUAGAAGGUAGAAUGUUAGAUCAUAAACUAAACAUGAGGAUCACCCAUGUU [JR_ExcNG1_Sub093] (Eterna round: R96, puzzle: Exclusion NG 1) | nM | 20.2 |

Would you mind listing apparent KD of MS2 coat protein for each of the following sequences?
1. UCACGGGACUGAGGAUAUACAUGAACCAUGUUUGUAGAAGGCAGAAGGUUUGAUCAUACACUAAACAUGAGGAUCACCCAUGUU [JR_ExcNG1_Sub027] (Eterna round: R96, puzzle: Exclusion NG 1)
2. GUCAGCUCGUGAGGAUAUGAACAUGAGGAUCACCCAUGUAAGAUCAAGCUGCUUCGGCAGCAAGUUCAGAAGGUACGAGCUGAU [ENG2/10-C2] (Eterna round: R96, puzzle: Exclusion NG 2)
3. UAAUAACAUGUAGGAUAUGCGUGGCGAAGCUAUGCAGAAGGACAUGAGGAUCACCCAUGUUAAAGCGUCUGAGAACAGAUGCGA [Mat - Exclusion NG 1 - Mod of JL - D98] (Eterna round: R96, puzzle: Exclusion NG 1)
4. GGACUGAAGCUAGGAUAUCCCGUGUGAUCACGAGGAGAAGGAGCGCACGGGUAGUCAACAUGAGGAUCACCCAUGUACAGUCCA [Laditiqu] (Eterna round: R96, puzzle: Exclusion NG 1)

output:
1. 15.1
2. 93.3
3. 24.9
4. 15.4
